- measurementTarget: human GLP-1R (SNAP-GLP-1R expressed in HEK293 cells) (human) (UniProt P43220)
- Sequence (P43220 24-463): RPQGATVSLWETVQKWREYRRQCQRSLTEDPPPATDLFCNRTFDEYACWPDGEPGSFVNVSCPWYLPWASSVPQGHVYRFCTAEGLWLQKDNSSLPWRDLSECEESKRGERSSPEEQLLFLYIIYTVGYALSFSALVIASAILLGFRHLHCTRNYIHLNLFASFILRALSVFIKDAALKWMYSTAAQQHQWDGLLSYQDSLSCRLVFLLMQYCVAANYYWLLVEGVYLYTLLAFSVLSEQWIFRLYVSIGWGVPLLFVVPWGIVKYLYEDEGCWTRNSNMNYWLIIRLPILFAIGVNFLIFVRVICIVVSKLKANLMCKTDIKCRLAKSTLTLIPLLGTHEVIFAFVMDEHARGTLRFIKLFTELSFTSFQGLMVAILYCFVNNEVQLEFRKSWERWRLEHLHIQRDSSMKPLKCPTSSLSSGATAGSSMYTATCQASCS
- assayExplanation: cell-based or functional assay
measuredMetric: Internalization % TOP (%)

- binder: "YXQGTXTSDXXILLDXKAQXXFIEYLIEGGPSSGEPPPSGTGE (synthetic construct; SITE 2: note = 2-Aminoisobutyric Acid; SITE 6: note = alpha-methyl-2-fluoro-L-phenylalanine; SITE 10: note = 3-(4-Pyridyl)-L-alanine; SITE 11: note = alpha-methyl-L-serine; SITE 16: note = L-ornithine; SITE 17: note = Lysine is chemically modified through conjugation of the epsi) [Example 548]"
  measurement: 109
- binder: "YXQGTFTSDFSXXLDKKAQXAFIEYLLEXGXSSGAPPPSGS (synthetic construct; SITE 2: note = 2-Aminoisobutyric Acid; SITE 12: note = L-ornithine; SITE 13: note = alpha-methyl-leucine; SITE 17: note = Lysine is chemically modified through conjugation of the epsilon-amino group of the Lysine side chain with (2-[2-(2-Amino-ethoxy)-ethoxy]-acetyl)-(gamma-Glu)) [Example 242]"
  measurement: 38.2
- binder: "YXQGTFTSDFSXXLDKKAQXAFIEYLLEXGPSSGAPPPSGX (synthetic construct; SITE 2: note = 2-Aminoisobutyric Acid; SITE 12: note = L-ornithine; SITE 13: note = alpha-methyl-leucine; SITE 17: note = Lysine is chemically modified through conjugation of the epsilon-amino group of the Lysine side chain with (2-[2-(2-Amino-ethoxy)-ethoxy]-acetyl)-(gamma-Glu)) [Example 279]"
  measurement: 37.5
- binder: "YXQGTFTSDFSKXLDKKAQXAFIEYLIEXGESSGAPPPSGE (synthetic construct; SITE 2: note = 2-Aminoisobutyric Acid; SITE 13: note = alpha-methyl-leucine; SITE 17: note = Lysine is chemically modified through conjugation of the epsilon-amino group of the Lysine side chain with (2-[2-(2-Amino-ethoxy)-ethoxy]-acetyl)-(gamma-Glu)-CO-(CH2) 16-CO2H; SITE 20: n) [Example 217]"
  measurement: 58.2
- binder: "YXQGTFTSDFSQXLDKKAQXAFIEYLIEXGESSGAPPPSGS (synthetic construct; SITE 2: note = 2-Aminoisobutyric Acid; SITE 13: note = alpha-methyl-leucine; SITE 17: note = Lysine is chemically modified through conjugation of the epsilon-amino group of the Lysine side chain with (2-[2-(2-Amino-ethoxy)-ethoxy]-acetyl)-(gamma-Glu)-CO-(CH2) 16-CO2H; SITE 20: n) [Example 232]"
  measurement: 45.5
- binder: "YXQGTFTSDFSXXLDKKAQXAFIEYLLEXGPSSGAPPPSGE (synthetic construct; SITE 2: note = 2-Aminoisobutyric Acid; SITE 12: note = L-ornithine; SITE 13: note = alpha-methyl-leucine; SITE 17: note = Lysine is chemically modified through conjugation of the epsilon-amino group of the Lysine side chain with (2-[2-(2-Amino-ethoxy)-ethoxy]-acetyl)-(gamma-Glu)) [Example 110]"
  measurement: 42.5
